Value source: PubChem BioAssay (NCATS)

test: qHTS profiling for inhibitors of Plasmodium falciparum proliferation (AID 504749);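 further: 0% = DMSO vehicle and full inhibition = artemisinin control; nearly all actives have a fitted effect of over 60% in size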; conditions: P. falciparum in erythrocytes, SYBR Green DNA, 72 h; at 28.7 µM (top of the series); parasite line B
Records with an inconclusive call do not appear.
Here, each record is paired with measured activity, negative = inhibition data.
Numeric only. Scale: %

Ask: Which activity, negative = inhibition reading was recorded for the compound `N[C@@H](Cc1cc(I)c(Oc2cc(I)c(O)c(I)c2)c(I)c1)C(=O)O` ?
Result: -2.18

Ask: And for `COC1=C(OC)C(=O)C(CCCCCCCCCCO)=C(C)C1=O` ?
Result: -11.7

Ask: Ok, now O=C(CS(=O)Cc1ccco1)NCC=CCOc1cc(CN2CCCCC2)ccn1 (stereo not drawn)
Result: -5.5

Ask: Proceed to `O=P(O)(O)C(O)(Cn1ccnc1)P(=O)(O)O`
Result: -1.43

Ask: Next compound: `Nc1nc(Cl)nc2c1ncn2[C@H]1C[C@H](O)[C@@H](CO)O1`
Result: 14.5

* * *

assay: Quantitative High-Throughput drug screen in 47 multiple myeloma cell lines against the NCATS MIPE library collection: XG1_PLB cell viability assay (AID 1919866); conditions: CellTiter-Glo ATP, 48 h; series mostly up to 45.8 µM; further: nearly all actives have a fitted effect of over 35% in size
Results filed as inconclusive are left out. Activity calls are given as the source filed them. Calls come from the whole dose curve; as a rule, active = well fitted cell-killing curve with a large enough effect; inconclusive = small, poorly fitted or top-dose-only effect, or effect the other way; inactive = no such curve, though single readings can be large or run the other way.
In this exercise, the only acceptable responses are 1 (yes) (active), 0 (no) (inactive)

Ask: Hi, do you know how `O=Nc1c(-c2c(O)[nH]c3cc(Br)ccc23)[nH]c2ccccc12` came out in this test?
Result: 1 (yes)

Ask: Subsequent entry: `O=C(O)c1cccnc1Nc1cccc(C(F)(F)F)c1`
Result: 0 (no)

Ask: Can you check `C[C@H](Cc1ccc(O)c(O)c1)[C@@H](C)Cc1ccc(O)c(O)c1` next?
Result: 1 (yes)

* * *

test: qHTS Screen of the MIPE 4.0 Collection Against Ewings Sarcoma (TC32) (AID 1259256); conditions: TC32 Ewing sarcoma viability, CellTiter-Glo, 48 h; series mostly up to 45.8 µM; further: nearly all actives have a fitted effect of over 45% in size
Records with an inconclusive call do not appear. Calls of active or inactive are those of the source. Calls come from the whole dose curve; as a rule, active = well fitted inhibition curve with a large enough effect; inconclusive = small, poorly fitted or top-dose-only effect; inactive = no such curve, though single readings can be large or run the other way.
Pick one: active, inactive

compound: Cc1c(C(=O)NN2CCCCC2)nn(-c2ccc(Cl)cc2Cl)c1-c1ccc(Cl)cc1
category: active
--
compound: c1ccc2[nH]c(-c3cscn3)nc2c1
category: inactive
--
compound: CC1=C(C)C(=O)C(C(CCCCCC(=O)O)c2ccccc2)=C(C)C1=O (stereo unspecified)
category: inactive
--
compound: O=C(O)c1cc(=O)c2c(OCC(O)COc3cccc4oc(C(=O)O)cc(=O)c34)cccc2o1
category: inactive

Ask: Each compound tested received a call. Report the one for `O=C(O)c1cccnc1Nc1cccc(C(F)(F)F)c1` .
Result: inactive

Ask: Consider next the compound `COc1c(O)cc2c(c1O)[C@@H]1O[C@H](CO)[C@@H](O)[C@H](O)[C@H]1OC2=O` in the same way.
Result: inactive

Ask: Try this compound too: `O=c1c(O)c(-c2ccc(O)cc2O)oc2cc(O)cc(O)c12`
Result: inactive

Ask: Repeat for the following compound: `Cc1cccc(-c2[nH]ncc2-c2ccc3ncccc3n2)n1`
Result: inactive

Ask: Try this compound next: COc1cc2nc(N3CCN(C(=O)C4CCCO4)CC3)nc(N)c2cc1OC (stereo unspecified)
Result: inactive

Ask: What about `CN(C)CCc1c[nH]c2ccc(Cn3cncn3)cc12` ?
Result: inactive

Ask: Now try CCC1=C(C)CN(C(=O)NCCc2ccc(S(=O)(=O)NC(=O)NC3CCC(C)CC3)cc2)C1=O (stereo unspecified) .
Result: inactive
